Test system: P388 murine leukemia cell line
Assay: P388 cytotoxicity (ATP-Lite, 72 hours)
Assay type: cell-based
Conditions: Mus musculus, P388, 72 hours
Consider the following compounds; for each one, report its pIC50.
Numbers only, as −log10 of the molar value.

>  <Compound>
COc1ccc(N(C)c2nc(C)nc3ccc(N)cc23)cc1F [Example 215]

>  <pIC50>
8.52

$$$$

Need pIC50 for each of these compounds.
1. COc1ccc(N(C)c2nc(CN3CCCC3=O)nc3ccccc23)cc1 [Example 255]
2. CONc1nc2c(c(N(C)c3ccc(OC)cc3)n1)CCCC2 [Example 190]
3. Cc1nc(N(C)c2ccc(OC(C)C)cc2)c2cc(N)ccc2n1 [Example 226]

Output:
1: 6.21; 2: 8.22; 3: 7.70

The following compounds each have a reported value; give each one's pIC50.
1. CNc1nc2c(c(N(C)c3ccc(OC)cc3)n1)CCCC2 [Example 192]
2. COc1ccc(N(C)c2nc(C)nc3ccc(C#N)cc23)cc1 [Example 249]
3. Cc1nc(N(C)c2ccc(OCC(=O)O)cc2)c2ccccc2n1 [Example 144]
4. COc1ccc(N(C)c2nc(C(F)(F)F)nc3ccccc23)cc1 [Example 199]
5. COc1c(Cl)cc(N(C)c2nc(CCl)nc3ccccc23)cc1Cl [Example 251]

Output:
1: 7.72; 2: 7.70; 3: 5.77; 4: 8.52; 5: 5.68
